# Test system: Micrococcus luteus
# Experiment notes: Antimicrobial activity against Micrococcus luteus ATCC 10240 by twofold dilution technique
# Format: functional
Lab note - cut at 50 µg/mL for MIC: fulfilled if strictly below, not fulfilled if not.

Below are worked cases with known answers.
O=C(O)c1cn(C2CC2)c2cc(N3CCNCC3)c(F)cc2c1=O fulfilled
COCCOCCN/N=C/c1c(O)c(O)c(C(C)C)c2cc(C)c(-c3c(C)cc4c(C(C)C)c(O)c(O)c(/C=N/NCCOCCOC)c4c3O)c(O)c12 not fulfilled
COCCN/N=C/c1c(O)c(O)c(C(C)C)c2cc(C)c(-c3c(C)cc4c(C(C)C)c(O)c(O)c(/C=N/NCCOC)c4c3O)c(O)c12 not fulfilled

Below: the item to evaluate.
Request: Please indicate whether the reported MIC of COCCOC(CN/N=C/c1c(O)c(O)c(C(C)C)c2cc(C)c(-c3c(C)cc4c(C(C)C)c(O)c(O)c(/C=N/NCC(OCCOC)OCCOC)c4c3O)c(O)c12)OCCOC is strictly below 50 µg/mL.
Result: not fulfilled

###

# Test system: Staphylococcus aureus
# Experiment notes: Antimicrobial activity against Methicillin susceptible Staphylococcus aureus 212/7 by twofold dilution technique
# Type: functional
Kindly state MIC for each of the entries shown.
Give bare numbers, in µg/mL.

Molecule	Result unit	Test value
Cc1cc2c(c(O)c1-c1c(C)cc3c(c1O)/C(=C/N)C(=O)C(O)=C3C(C)C)/C(=C/N)C(=O)C(O)=C2C(C)C	µg/mL	200
Cc1cc2c(c(O)c1-c1c(C)cc3c(c1O)/C(=C/NCC1COCCOCCOCCOCCOCCO1)C(=O)C(O)=C3C(C)C)/C(=C/NCC1COCCOCCOCCOCCOCCO1)C(=O)C(O)=C2C(C)C (configuration not stated)	µg/mL	100
Cc1cc2c(C(C)C)c(O)c(O)c(/C=N/N3CCN(CCO)CC3)c2c(O)c1-c1c(C)cc2c(C(C)C)c(O)c(O)c(/C=N/N3CCN(CCO)CC3)c2c1O	µg/mL	50
COCCOCCN/N=C/c1c(O)c(O)c(C(C)C)c2cc(C)c(-c3c(C)cc4c(C(C)C)c(O)c(O)c(/C=N/NCCOCCOC)c4c3O)c(O)c12	µg/mL	400
Cc1cc2c(c(O)c1-c1c(C)cc3c(c1O)/C(=C/NCCc1cccs1)C(=O)C(O)=C3C(C)C)/C(=C/NCCc1cccs1)C(=O)C(O)=C2C(C)C	µg/mL	25

With those in mind, consider the next molecule.
The reported MIC of the molecule Cc1cc2c(C(C)C)c(O)c(O)c(C=O)c2c(O)c1-c1c(C)cc2c(C(C)C)c(O)c(O)c(C=O)c2c1O was 50

Data provenance: ChEMBL document CHEMBL1155271
